target: Recombinant human BACE1 (Homo sapiens (Human), UniProt P56817); assay: Assay of BACE1 inhibiting activity (HTRF, substrate peptide cleavage); type: biochemical; conditions: 50% inhibitory concentration against enzymatic activity; 30° C., 3.5 hours, pH 5.0; read-out: IC50 value
Sequence (P56817 46-501): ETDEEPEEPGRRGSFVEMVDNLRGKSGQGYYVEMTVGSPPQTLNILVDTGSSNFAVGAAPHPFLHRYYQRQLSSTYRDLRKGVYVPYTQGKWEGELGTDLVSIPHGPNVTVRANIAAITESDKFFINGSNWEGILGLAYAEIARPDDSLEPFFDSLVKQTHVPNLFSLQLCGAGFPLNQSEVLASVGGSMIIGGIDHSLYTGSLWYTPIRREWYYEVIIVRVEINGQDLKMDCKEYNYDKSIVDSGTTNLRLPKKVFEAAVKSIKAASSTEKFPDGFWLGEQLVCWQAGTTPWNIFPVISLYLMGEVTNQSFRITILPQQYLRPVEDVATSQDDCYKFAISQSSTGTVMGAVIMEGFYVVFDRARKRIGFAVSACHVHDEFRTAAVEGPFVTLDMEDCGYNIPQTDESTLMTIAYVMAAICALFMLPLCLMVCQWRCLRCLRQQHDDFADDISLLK
Measured Quantity: IC50 (nM)

[a] C[C@]1(c2cc(NC(=O)c3ccc(C#N)cn3)ccc2F)N=C(N)OC2(COC2)[C@@H]1F
[b] C#C[C@@]1(c2cc(NC(=O)c3ccc(C#N)cn3)ccc2F)CCOC(N)=N1
QUERY: Which is greater in IC50, the first item a or the second item b ? Give the label of your selection.
RESULT: b

[I] C[C@]1(c2cc(NC(=O)c3coc(C(F)F)n3)ccc2F)N=C(N)O[C@H](CF)[C@@H]1F
[II] C#C[C@]1(c2cc(NC(=O)c3ccc(C#N)cn3)ccc2F)N=C(N)O[C@@H]2C[C@@H]21
[III] CC1(C)C[C@@](C)(c2cc(NC(=O)c3ccc(C#N)cn3)ccc2F)N=C(N)O1
[IV] C[C@@]1(c2cc(NC(=O)c3ccc(C#N)cn3)ccc2F)CCCOC(N)=N1
QUERY: Arrange items by their IC50 values in increasing order. The response must list the labels following the requested ordering.
RESULT: I, II, III, IV
(I: 32.9 nM, II: 65.4 nM, III: 94.2 nM, IV: 153 nM)

###

target: Recombinant human BACE1 (Homo sapiens (Human), UniProt P56817); test: Assay of BACE1 inhibiting activity (HTRF, substrate peptide cleavage); assay type: biochemical; conditions: 50% inhibitory concentration against enzymatic activity; 30° C., 3.5 hours, pH 5.0; read-out: IC50 value
Measured Quantity: IC50 (nM)

Compound: C[C@H]1OC(N)=N[C@](CF)(c2cc(NC(=O)c3ccc(C#N)cn3)ccc2F)[C@H]1CF [Compound I-100]
Unit Abbrev: nM
IC50: 113

[1] Cc1cc(C#N)cnc1C(=O)Nc1ccc(F)c([C@]2(C(F)F)CCOC(N)=N2)c1 [Compound I-4]
[2] C#C[C@]1(c2cc(NC(=O)c3cnc(OCF)cn3)ccc2F)N=C(N)O[C@@H]2COC[C@@H]21 [Compound I-72]
QUERY: Which is greater in IC50, the first item 1 or the second item 2 ? Give the label of your selection.
RESULT: 1
